This collection of values is drawn from the EternaBench riboswitch data.

- System: MS2 coat protein
- assay_info: apparent Kd, MS2 coat protein; higher = weaker binding; RNA-MaP array; tryptophan 2.4 mM where present
- details: designed as: OFF switch for tryptophan; no ligand
measured_property: apparent Kd (nM)
// units = nM; emit number, no label

# sequence UUACAUGAGGAUCACCCAUGUUUACUAUGUCGAGGACCGGUACGGCCGCCACUCGUAUUUGAUGAUUUAGGUGCCACAAGUUAUU ; its apparent Kd = 21.2

apparent Kd for CGCGGUUGAGAUGGGCCUUUGAUAAGUCUGCGAGGACCGGUACGGCCGCCACUCGAGGACAUGAGGAUCACCCAUGUACUUCGCG is 47.3

apparent Kd measured on GAUAUGGAAACAUGUCAGAUCCUUACCGGUCGAGGACCGGUACGGCCGCCACUCGAAAACGAGGAACAUGAGGAUCACCCAUGUA = 49.7

Given item GUCUUGGGAUCGGCCGCCACUACAUGAGGAUCACCCAUGUGGACAAAUAGGGUUUUUAAGCUCGGUAGGACCGGGAUUCGGACAU , the value recorded as its apparent Kd is 12.9

Sample UAACAUGAGGAUCACCCAUGUAUACUAAGUCGAGGACCGGUACGGCCGCCACUCGAACUUCAAGAAUAGGCGGUAAAUGUAAGUA ; apparent Kd observed: 11.5

Reported apparent Kd ( UGAUACCAGUCGGCCGCCACUACAUGAGGAUCACCCAUGUAUGGGUCAAUGCUAGAUACUAGCAGUAGGACCGGGACUGGUAUCU ) = 11.4

Recorded apparent Kd (sequence UGGGUACCGACGGCCGCCACUGACUAUAGACAUGAGGAUCACCCAUGUAGAGAUCCUAGACUACCCAGGACCGGGUCUGGUGCUA ): 124

get_value(item= UUCUUUAAGUCGGCCGCCACUGAAACAUGAGGAUCACCCAUGUAAAUUUGGGAGUAGGUAUAUUACAGGACCGGGACUAUAGUAA , readout=apparent Kd) returns 29.9

apparent Kd reading for UGUAUUGGAAACAGUACUAGUGAUCCGGUCCGAGGACCGGUACGGCCGCCACUCGAUAUAAAUAAACAUGAGGAUCACCCAUGUA : 14.9

Looking up CCAUUGAUGACGGCCGCCACUGUCUACAUGAGGAUCACCCAUGUAUAGCAGGGUGGACCUAUGGACAGGACCGGGUCACUUGUCC , I found its apparent Kd recorded as 11

Short answer for AUGACUCACAAAGAAGAUAAAAUGGGUGAACGAGGACCGGUACGGCCGCCACUCGGACAUGAGGAUCACCCAUGUCCAUGUGCAA : apparent Kd was 22.1

Looking up GCGACCCUGAGAUCCUGCGUAACGUGAACACGAGGACCGGUACGGCCGCCACUCGAGAGAACAUGAGGAUCACCCAUGUCUGAGC , I see its apparent Kd listed as 20.4

The recorded apparent Kd for entry UAAUAAGUACCGGUUCUCAGAUCCUCAUGUCGAGGACCGGUACGGCCGCCACUCGAAACAUGAGGAUCACCCAUGUAAUAAUAAU equals 36.2

The sequence listed as CAAUAAGUACCGGUCCUCAGAUCCUCAUGACGAGGACCGGUACGGCCGCCACUCGAAACAUGAGGAUCACCCAUGUAAUAAUAAC has a reported apparent Kd of 40.9

apparent Kd reported for this sequence AAUGUAUGCCACAUGAGGAUCACCCAUGUGCGAGGACCGGUACGGCCGCCACUCGGUCGGUGGUUAAUGAAGAUAUACAAUAAUG : 11.5

Reported apparent Kd of UAUUAUCAGUCGGCCGCCACUGACACAUGAGGAUCACCCAUGUAAUUUGGGUUAUAUAUAAAUUACAGGACCGGGACAAAUGCUA : 341

Record summary for AUGCAUAGCACGGCCGCCACUCCAUGUAAACAUGAGGAUCACCCAUGUAAUUUGGAUGUUUUAUAGAGGACCGGGUGAAAUGCAA : reported apparent Kd = 8.88

Looking up CCUAUGCAGUCGGCCGCCACUGAACAUGAGGAUCACCCAUGUAUAUAAAGAUCCUGAUAUAAUAACAGGACCGGGACUGUAUAGG , I found its apparent Kd recorded as 59.7

Looking up GGUAUGUAUUCGGAAACGAAUGCAUACCAACGAGGACCGGUACGGCCGCCACUCGGCCGUGAUCAACAUGAGGAUCACCCAUGUA , I see its apparent Kd listed as 15.8

// recorded apparent Kd for CCUAUGCAGUCGGCCGCCACUGAUAAAGUUAUCUUUACCUCAGAAACAUGAGGAUCACCCAUGUACAGGACCGGGACUGUAUAGG : 12.7

Summary for this sequence, UUGCCCAGUACGGCCGCCACUGUGUGCAGGGAACCCAGGUCCACAUGAGGAUCACCCAUGUACAGCAGGACCGGGUACUUGCAAU : apparent Kd is 9.03

----------
- Test system: MS2 coat protein
- assay_info: apparent Kd, MS2 coat protein; higher = weaker binding; RNA-MaP array; theophylline 2 mM where present
- details: ligand present: theophylline; designed as: ON switch for theophylline
Please respond with reported apparent Kd for every item in the list.
Give the number; nM is assumed, so skip it.

Query UGUAACAUGAGGAUCACCCAUGUGCACGAUACCAGCUUCGAAAGAGGCCCUUGGCAGCGUAUGCGUAAGCUGUAUAAUAUAUAUC yields apparent Kd of 13.6

UAAAACAUGAGGAUCACCCAUGUAUUUGAUACCAGAGUGAUGAUCCUCCCUUGGCAGCAAAUAACGCAUUGAUUACAAUGCGAAA has a reported apparent Kd of 143

Short answer for UAAAACAUGAGGAUCACCCAUGUAAUUGAUACCAGAGUGAUGAUCCUCCCUUGGCAGCAAAUAACGCAUUGAUUACAAUGCGAAA : apparent Kd was 215

Just so you know, measured apparent Kd for UUUGAAAUAACAGAUACCAGCGUGUUAUAAAACAUGAGGAUCACCCAUGUAGUGAUCAAGCGCCCUUGGCAGCUGGUAUUUUAGG came out at 196

The sequence listed as UGUAUGUGAUUUGAUACCAGACCAACUGGUAAAACAUGAGGAUCACCCAUGUAAACUUGGGUCCCUUGGCAGCAAAUCGCAUACU has a reported apparent Kd of 10.9

The recorded apparent Kd for entry ACGACGCAUAGUGAUACCAGUACAACAUGAGGAUCACCCAUGUCACAUAUGUUGUAAUAGUGCCCUUGGCAGCACUAUGCGUCAG equals 17.6

Consider GAUCCUCAUACGGAUACCAGCGAAUAACAUGAGGAUCACCCAUGUAAUAAAGAAAAUAAAUGCCCUUGGCAGCCGAAUAGAUAGU . Its measured apparent Kd is 69.4

----------
- Tested on: MS2 coat protein
- assay_info: apparent Kd, MS2 coat protein; higher = weaker binding; RNA-MaP array; theophylline 2 mM where present
- details: ligand present: theophylline; designed as: ON switch for theophylline
Classify by measured apparent Kd: rule met if it is equal to or exceeds 0.02 µM, rule not met if it is smaller.

Hello, I need to know if ACAUGAACAUGAGGAUCACCCAUGUAUGAUACCAGAAAAGAAGAGUUCCCUUGGCAGCGUACAACACAUGAGGAUCACCCAUGUG has measured apparent Kd not below 0.02 µM. Thanks!
rule met

Reported apparent Kd at or above 0.02 µM? AAUAACAUGAGGAUCACCCAUGUAAAAGAUACCAGAGUGAUGAUCCUCCCUUGGCAGCUUAAAACGCUAUUGAUUACAAUAGCGA
rule met

Does the reported apparent Kd for ACCAUGUAAUCAGAUACCAGACAUCUUUUAAAUCAUAUUACAUGAGGAUCACCCAUGUUGGUCCCUUGGCAGCUGAAAUAUUUUU fall at or above the 0.02 µM mark?
rule met

Identify whether the reported apparent Kd of the following sequence is 0.02 µM or greater: GCACCAGGUACGGAUACCAGCUGCCAUAGUUACAUGAGGAUCACCCAUGUGAUCUAUUGUAGCCCUUGGCAGCUGUACCUGGUGC
rule met

Is reported apparent Kd greater than or equal to 0.02 µM here: GAACAUGAGGAUCACCCAUGUAAAACAGAUACCAGUGAUAUAAUACACCCUUGGCAGCUGUAGCUGAAUAAUAAUUCCCUCAAGC
rule not met

Record CUCCGAGGCUAUACUAUCCGCCUCUGUGAUACCAGAAUACCUAUAUUCCCUUGGCAGCAUCACAUGAGGAUCACCCAUGUGCCAU ; criterion: apparent Kd no lower than 0.02 µM. Met?
rule not met

Please check the record ACGACGCAUACAGAUACCAGUAGCCGAGAAACAUGAGGAUCACCCAUGUCGAGCGACAACUGCCCUUGGCAGCUGUAUGCGUCAG and state if its apparent Kd is at or above 0.02 µM.
rule not met

Decide: apparent Kd of UGAGAUCCUCAUGAUACCAGUGUACUACAUGAGGAUCACCCAUGUAGCAACAUCUGUAGACACCCUUGGCAGCAUGAGACCACGU >= 0.02 µM?
rule met

API: above_or_equal(metric=apparent Kd, cutoff=0.02 µM) for item AUUAAUAGUUGUGAUACCAGACGAACAUGAGGAUCACCCAUGUAACUUUUAGGUGUUGUAGUCCCUUGGCAGCACUAUUUAGUUA
rule met

Identify whether the reported apparent Kd of the following sequence is 0.02 µM or greater: AAUCUGUCGGGUGAUACCAGCCUCGGCACGUCUCGUGCCGAACAUGAGGAUCACCCAUGUGGCCCUUGGCAGCACAUGACAAAUC
rule met

I'd appreciate it if you could say whether UUUACAUGAGGAUCACCCAUGUGCCAUGAUACCAGACAUGAAAAUGUCCCUUGGCAGCAUGAAAGAUCCACGUCGGAAACGACGG has apparent Kd at least equal to 0.02 µM.
rule met

// inclusive: apparent Kd at least 0.02 µM? input: CUCUGAGUGAGCAAUCACUCAGAGGCGGAUACCAGCGAGGUCCAUCGCCCUUGGCAGCCGAACAUGAGGAUCACCCAUGUCGGUA
rule not met

Hi, just wondering whether GGGCCUGUAAGCAGACCCACAGCGGGUGAUACCAGCAAUAAAACUUGCCCUUGGCAGCACACAGCUACAUGAGGAUCACCCAUGU shows apparent Kd of 0.02 µM or higher.
rule met

Is the recorded value of apparent Kd equal to or greater than 0.02 µM for this sequence? AAUAUAAGUGUAAUUAUAUUUAUAUCUGAUACCAGACUCUCAUGUGUCCCUUGGCAGCAGUUACAUGAGGAUCACCCAUGUAUUA
rule met
